Here, each record is paired with measured Max resp. (ΔF/F) data.
# Target or test system: cat T1R1/T1R3 receptor (Felis catus)
# Test: cell-based
# Type: cell-based
# Experimental parameters: in the presence of 20 mM alanine
Counter-ions that a name gives are not always drawn.

Solved entries:
Compound	Experimental result
Nc1nc(Cl)c2ncn(C3OC(COP(=O)(O)O)C(O)C3O)c2n1 (centres unmarked)	1.8700 ΔF/F
O=P(O)(O)OC[C@H]1O[C@@H](n2cnc3c(S)ncnc32)[C@H](O)[C@@H]1O [6-Thioinosine Phosphate]	1.3875 ΔF/F

Reported cat T1R1/T1R3 receptor (Felis catus) Max resp. (ΔF/F) for item "CNc1ccccc1C(=O)O[C@@H]1[C@H](O)[C@@H](COP(=O)(O)O)O[C@H]1n1cnc2c(=O)[nH]c(N)nc21" was 0.7190 ΔF/F

Reported cat T1R1/T1R3 receptor (Felis catus) Max resp. (ΔF/F) for item "O=C(Nc1ncnc2c1ncn2[C@@H]1O[C@H](COP(=O)(O)O)[C@@H](O)[C@H]1O)c1ccccc1" was 1.1 ΔF/F

Reported cat T1R1/T1R3 receptor (Felis catus) Max resp. (ΔF/F) for item O=c1[nH]cnc2c1ncn2[C@@H]1O[C@H](COP(=O)(O)OP(=O)(O)O)[C@@H](O)[C@H]1O [Inosine 5′-diphosphate (IDP) sodium salt, inosine 5′-diphosphate (IDP) sodium salt] was 0.3 ΔF/F

---

# Target or test system: T1R1/T1R3 receptor (Felis catus, UniProt E3UMS2)
# Test: Activation of T1R1/T1R3 receptor by transmembrane compounds alone or with alanine, IMP, GMP, phenylalanine; HEK293 cells, calcium fluorescence (Example 5)
# Assay type: cell-based, cat
# Experimental parameters: +Alanine (20 mM)
# From the text: Methods: HEK293 cells that stably express T1R3 and inducibly express T1R1 were exposed to transmembrane compounds alone or in combination with one or more amino acids and/or one or more nucleotides to activate the umami receptor. Activation of the T1R1/T1R3 receptor was detected by a change in intracellular calcium levels using a calcium sensitive fluorescent dye. Cells that express T1R3 but not T1R1 were used as a control. A FLIPR® Tetra or a FlexStation® 3 was used for data capture. […]
Measurement type: +Alanine (20 mM) Thres
Number in mM, nothing else.

Molecule	Target or test system	Value unit	+Alanine (20 mM) Thres
COc1ccc(/C=C/C(=O)NC2CCCCC2C)cc1 (stereo not drawn)	T1R1/T1R3 receptor (Felis catus, UniProt E3UMS2)	mM	3
CCC(CC)NC(=O)/C=C/c1ccc(OC)cc1	T1R1/T1R3 receptor (Felis catus, UniProt E3UMS2)	mM	0.148

# ---- query molecule ----
What the record says about CCC(CC)NC(=O)c1ccc(OC)c(OC)c1 [3,4-dimethoxy-N-(pentan-3-yl)benzamide] : +Alanine (20 mM) Thres is 0.3

---

Here, each record is paired with measured Threshold data.
# Target or test system: cat T1R1/T1R3 receptor (Felis catus)
# Test: cell-based
# Format: cell-based
# Experimental parameters: threshold amount that activates the receptor, in the presence of 20 mM alanine
Number in mM, nothing else.

Solved entries:
Compound	Value unit	Threshold
O=P(O)(O)OC[C@H]1O[C@@H](n2cnc3cncnc32)[C@H](O)[C@@H]1O [Purine riboside-5′-O-monophosphate, reference compound]	mM	0.005
Nc1nc2c(ncn2[C@H]2C[C@H](O)[C@@H](COP(=O)(O)O)O2)c(=O)[nH]1 [2′-Deoxyguanosine 5′-monophosphate]	mM	0.060
Nc1ncnc2c1ncn2[C@@H]1O[C@H](COP(O)(O)=S)[C@@H](O)[C@H]1O	mM	0.003

# ---- query compound ----
What the record says about "O=P(O)(O)OC[C@H]1O[C@@H](n2cnc3c(Cl)ncnc32)[C@H](O)[C@@H]1O" : Threshold is 0.0005

---

# Target or test system: T1R1/T1R3 receptor (Felis catus, UniProt E3UMS2)
# Test: Activation of T1R1/T1R3 receptor by transmembrane compounds and nucleotide derivatives, conducted as in Examples 1, 2 and 5 (Example 7)
# Assay type: cell-based, cat
Here, each record is paired with measured Thres +Alanine (20 mM) data.
Number in mM, nothing else.

Reported T1R1/T1R3 receptor (Felis catus, UniProt E3UMS2) Thres +Alanine (20 mM) for item O=C(NCCc1c[nH]c2ccccc12)c1cccnc1 [N-(2-(1H-indol-3-yl)ethyl)nicotinamide, N-(2-(1H-Indol-3-yl)ethyl)nicotinamide] was 0.03

Reported T1R1/T1R3 receptor (Felis catus, UniProt E3UMS2) Thres +Alanine (20 mM) for item "COC(=O)[C@H](Cc1ccccc1)NCc1ccccc1" was 0.01

Reported T1R1/T1R3 receptor (Felis catus, UniProt E3UMS2) Thres +Alanine (20 mM) for item Nc1ccccc1C(=O)NCCc1ccccc1 [2-amino-N-phenethylbenzamide] was 0.3

Reported T1R1/T1R3 receptor (Felis catus, UniProt E3UMS2) Thres +Alanine (20 mM) for item "O=C(NCCc1ccccc1)c1ccc2c(c1)OCO2" was 1.0

---

# Target or test system: T1R1/T1R3 receptor (Felis catus, UniProt E3UMS2)
# Test: Activation of T1R1/T1R3 receptor by transmembrane compounds alone or with alanine, IMP, GMP, phenylalanine; HEK293 cells, calcium fluorescence (Example 5)
# Format: cell-based, cat
# Experimental parameters: compound alone in buffer; read-out: EC50 +buffer (alone)
pEC50: −log10 of the molar value.
Measurement type: pEC50

Reported T1R1/T1R3 receptor (Felis catus, UniProt E3UMS2) pEC50 for item "O=C(CN1C(=O)C(=O)N(Cc2ccccc2)C1=O)c1ccccc1" was < 3.00

---

# Target or test system: T1R1/T1R3 receptor (Felis catus)
# Test: Activation of T1R1/T1R3 receptor by transmembrane compounds and nucleotide derivatives, conducted as in Examples 1, 2 and 5 (Example 7)
# Assay type: cell-based, cat
# Experimental parameters: +IMP (0.2 mM)
Here, each record is paired with measured Max resp ΔF/F +IMP (0.2 mM) data.

Molecule	Measurement type	Experimental result
N[C@@H](Cc1c[nH]cn1)C(=O)O [L-Histidine, L-histidine, reference compound]	Max resp ΔF/F +IMP (0.2 mM)	0.2825 ΔF/F
CCOC(=O)NC(=O)C(c1ccccc1)c1ccccc1 [Ro 01-6128, reference compound]	Max resp ΔF/F +IMP (0.2 mM)	1.5525 ΔF/F

What the record says about O=C(O)C1CCCCC1C(=O)Nc1cc(Cl)cc(Cl)c1 (stereo not drawn) : Max resp ΔF/F +IMP (0.2 mM) is 1.2275 ΔF/F

---

# Target or test system: cat T1R1/T1R3 receptor (Felis catus, UniProt E3UMS2)
# Test: cell-based
# Type: cell-based
# Experimental parameters: in the presence of 20 mM alanine; read-out: EC50- with Ala
Would you mind sorting the entries by EC50 according to these classes? LOW: < 20 µM; MID: ≥ 20 µM and < 80 µM; HIGH: ≥ 80 µM

Example results:
Compound	Category
O=P(O)(O)OC[C@H]1O[C@@H](n2cnc3c(Cl)ncnc32)C(O)C1O (stereo partly drawn)	LOW
O=P(O)(O)OC[C@H]1O[C@@H](n2cnc3c(Cl)ncnc32)[C@H](O)[C@@H]1O	LOW
NC(=O)c1ncn(C2OC(COP(=O)(O)O)C(O)C2O)n1 (stereo not drawn) [Ribavirin 5′-Monophosphate]	HIGH
O=P(O)(O)OC[C@H]1O[C@@H](n2cnc3c2ncn2ccnc32)[C@H](O)[C@@H]1O [1,N6-Ethenoadenosine-5′-O-monophosphate]	MID
Nc1nc(Cl)c2ncn(C3OC(COP(=O)(O)O)C(O)C3O)c2n1 (stereo not drawn)	LOW
Nc1ncnc2c1ccn2[C@H]1O[C@@H](COP(=O)(O)O)[C@H](O)[C@@H]1O (stereo in doubt) [7-Deazaadenosine-5′-O-monophosphate]	HIGH
O=P(O)(O)OC[C@H]1O[C@@H](n2cnc3c(NC4CCCC4)ncnc32)[C@H](O)[C@@H]1O	MID
Nc1nc2c(ncn2[C@@H]2O[C@H](COP(=O)(O)OP(=O)(O)O)[C@@H](O)[C@H]2O)c(=S)[nH]1 [6-Thioguanosine-5′-O-diphosphate]	HIGH
CC(=O)Nc1nc2c(ncn2[C@@H]2O[C@H](COP(=O)(O)O)[C@@H](O)[C@H]2O)c(=O)[nH]1	HIGH

Please examine the following record next.
For this compound, which bin applies? CNc1ccccc1C(=O)OC1C[C@H](n2cnc3c(=O)[nH]c(N)nc32)O[C@@H]1COP(=O)(O)O (stereo in doubt)
LOW

---

# Target or test system: T1R1/T1R3 receptor (Felis catus, UniProt E3UMS2)
# Test: Activation of T1R1/T1R3 receptor by transmembrane compounds alone or with alanine, IMP, GMP, phenylalanine; HEK293 cells, calcium fluorescence (Example 5)
# Type: cell-based, cat
# Experimental parameters: +IMP (0.2 mM)
# Description: Methods: HEK293 cells that stably express T1R3 and inducibly express T1R1 were exposed to transmembrane compounds alone or in combination with one or more amino acids and/or one or more nucleotides to activate the umami receptor. Activation of the T1R1/T1R3 receptor was detected by a change in intracellular calcium levels using a calcium sensitive fluorescent dye. Cells that express T1R3 but not T1R1 were used as a control. A FLIPR® Tetra or a FlexStation® 3 was used for data capture. […]
Measurement type: +IMP (0.2 mM) Max resp % of Ala

Compound	Target or test system	+IMP (0.2 mM) Max resp % of Ala
CCC(CC)NC(=O)c1ccc2c(c1)OCCO2	T1R1/T1R3 receptor (Felis catus, UniProt E3UMS2)	70.9 % of Ala
COc1cc(C(=O)NC(C(N)=O)c2ccccc2)cc(Cl)c1OC (centres unmarked)	T1R1/T1R3 receptor (Felis catus, UniProt E3UMS2)	49.4 % of Ala
CC1CCCC(NC(=O)c2ccc3c(c2)OCO3)C1C (centres unmarked)	T1R1/T1R3 receptor (Felis catus, UniProt E3UMS2)	95.4 % of Ala
O=C(Nc1ccccc1Br)N[C@@H]1c2ccccc2C[C@@H]1O (stereo in doubt)	T1R1/T1R3 receptor (Felis catus, UniProt E3UMS2)	44.9 % of Ala

# ---- query compound ----
What the record says about "CCC(CC)NC(=O)c1ccc(C)c(C)c1" : +IMP (0.2 mM) Max resp % of Ala is 125.7 % of Ala
